Target Entity: S100B (Homo sapiens, UniProt P04271)
Construct: made in house; host or cells: Escherichia coli BL21(DE3)
Sequence (P04271 whole entry): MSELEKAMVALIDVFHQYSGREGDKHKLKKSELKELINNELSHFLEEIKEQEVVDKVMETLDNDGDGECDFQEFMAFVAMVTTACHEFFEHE
Procedure Text: Pull-down assay with immobilized protein and LSM libraries
Format: binding
Measurement Parameters: H14 library; 1:1 binding assumed; read-out: Surface mapping KD (apparent)
pKd: −log10 of the molar value.
Mark t for reported pKd of 4 or greater; mark f for anything smaller.

Compound	Assigned Label
CC[C@H](C)[C@@H](CC(=O)N[C@H]1CCCC[C@@H]1C(N)=O)NC(=O)[C@H]1CCCC[C@@H]1NC(=O)[C@H]1CCCC[C@@H]1NC(=O)C[C@H](Cc1c[nH]c2ccccc12)NC(=O)[C@H]1CCCC[C@@H]1N [H14 WI]	t
CC(C)C[C@@H](CC(=O)N[C@H]1CCCC[C@@H]1C(N)=O)NC(=O)[C@H]1CCCC[C@@H]1NC(=O)[C@H]1CCCC[C@@H]1NC(=O)C[C@H](CCCNC(=N)N)NC(=O)[C@H]1CCCC[C@@H]1N [H14 RL]	t
C[C@@H](O)[C@@H](CC(=O)N[C@H]1CCCC[C@@H]1C(N)=O)NC(=O)[C@H]1CCCC[C@@H]1NC(=O)[C@H]1CCCC[C@@H]1NC(=O)C[C@H](Cc1ccccc1)NC(=O)[C@H]1CCCC[C@@H]1N [H14 FT]	f
NC(=O)[C@H]1CCCC[C@@H]1NC(=O)C[C@H](CO)NC(=O)[C@H]1CCCC[C@@H]1NC(=O)[C@H]1CCCC[C@@H]1NC(=O)C[C@H](Cc1ccccc1)NC(=O)[C@H]1CCCC[C@@H]1N [H14 FS]	f
C[C@@H](CC(=O)N[C@H]1CCCC[C@@H]1C(N)=O)NC(=O)[C@H]1CCCC[C@@H]1NC(=O)[C@H]1CCCC[C@@H]1NC(=O)C[C@H](CCCNC(=N)N)NC(=O)[C@H]1CCCC[C@@H]1N [H14 RA]	f
NC(=O)[C@H]1CCCC[C@@H]1NC(=O)C[C@H](Cc1ccc(O)cc1)NC(=O)[C@H]1CCCC[C@@H]1NC(=O)[C@H]1CCCC[C@@H]1NC(=O)C[C@H](Cc1c[nH]c2ccccc12)NC(=O)[C@H]1CCCC[C@@H]1N [H14 WY]	t
NC(=O)CC[C@@H](CC(=O)N[C@H]1CCCC[C@@H]1C(N)=O)NC(=O)[C@H]1CCCC[C@@H]1NC(=O)[C@H]1CCCC[C@@H]1NC(=O)C[C@H](Cc1ccc(O)cc1)NC(=O)[C@H]1CCCC[C@@H]1N [H14 YQ]	f
NC(=O)C[C@@H](CC(=O)N[C@H]1CCCC[C@@H]1C(=O)N[C@H]1CCCC[C@@H]1C(=O)N[C@H](CC(=O)N[C@H]1CCCC[C@@H]1C(N)=O)Cc1ccc(O)cc1)NC(=O)[C@H]1CCCC[C@@H]1N [H14 NY]	f

Exercise: Check if pKd >= 4 (inclusive). Item: NCCCC[C@@H](CC(=O)N[C@H]1CCCC[C@@H]1C(=O)N[C@H]1CCCC[C@@H]1C(=O)N[C@H](CC(=O)N[C@H]1CCCC[C@@H]1C(N)=O)Cc1ccccc1)NC(=O)[C@H]1CCCC[C@@H]1N [H14 KF]
Key: t

* * *

Measured pKd accompanies every entry in the list below.
Target Entity: S100B (Homo sapiens)
Construct: made in house; host or cells: Escherichia coli BL21(DE3)
Procedure Text: Competition pull-down with native ligand RSK1 (689–735)
Type: binding
Measurement Parameters: H14 library; competitor peptide 200 µM; read-out: Surface mapping KD (apparent), competition
To interpret pKd, take it as minus log10 of a concentration measured in moles per litre.

These recorded examples may help you get a feel for the data.
Smiles Record	pKd
CC[C@H](C)[C@@H](CC(=O)N[C@H]1CCCC[C@@H]1C(N)=O)NC(=O)[C@H]1CCCC[C@@H]1NC(=O)[C@H]1CCCC[C@@H]1NC(=O)C[C@@H](NC(=O)[C@H]1CCCC[C@@H]1N)[C@@H](C)CC	3.83
CSCC[C@@H](CC(=O)N[C@H]1CCCC[C@@H]1C(=O)N[C@H]1CCCC[C@@H]1C(=O)N[C@@H](C)CC(=O)N[C@H]1CCCC[C@@H]1C(N)=O)NC(=O)[C@H]1CCCC[C@@H]1N	3.42
CC[C@H](C)[C@@H](CC(=O)N[C@H]1CCCC[C@@H]1C(=O)N[C@H]1CCCC[C@@H]1C(=O)N[C@@H](CCSC)CC(=O)N[C@H]1CCCC[C@@H]1C(N)=O)NC(=O)[C@H]1CCCC[C@@H]1N	3.79
N=C(N)NCCC[C@@H](CC(=O)N[C@H]1CCCC[C@@H]1C(N)=O)NC(=O)[C@H]1CCCC[C@@H]1NC(=O)[C@H]1CCCC[C@@H]1NC(=O)C[C@H](Cc1c[nH]c2ccccc12)NC(=O)[C@H]1CCCC[C@@H]1N	3.78

Let's switch to this compound now.
Exercise: What value of measured pKd is listed for `CC(C)C[C@@H](CC(=O)N[C@H]1CCCC[C@@H]1C(N)=O)NC(=O)[C@H]1CCCC[C@@H]1NC(=O)[C@H]1CCCC[C@@H]1NC(=O)C[C@H](Cc1ccccc1)NC(=O)[C@H]1CCCC[C@@H]1N` ?
Key: 3.69

* * *

Target Entity: CaM (Bos taurus)
Construct: made in house; host or cells: E. coli BL21 (DE3)
Procedure Text: Pull-down assay with immobilized protein and LSM libraries
Assay type: binding, bovine
Measurement Parameters: H14 library; 1:2 stoichiometry assumed; read-out: Surface mapping KD (apparent)
Catalogue of pKd readings, one per entry.
Keep it numeric: pKd is minus log10 of the concentration in mol/L.

Compound	pKd
C[C@@H](O)[C@@H](CC(=O)N[C@H]1CCCC[C@@H]1C(N)=O)NC(=O)[C@H]1CCCC[C@@H]1NC(=O)[C@H]1CCCC[C@@H]1NC(=O)C[C@H](CCCCN)NC(=O)[C@H]1CCCC[C@@H]1N [H14 KT]	3.62
C[C@@H](CC(=O)N[C@H]1CCCC[C@@H]1C(N)=O)NC(=O)[C@H]1CCCC[C@@H]1NC(=O)[C@H]1CCCC[C@@H]1NC(=O)C[C@H](C)NC(=O)[C@H]1CCCC[C@@H]1N [H14 AA]	3.40
C[C@@H](O)[C@@H](CC(=O)N[C@H]1CCCC[C@@H]1C(=O)N[C@H]1CCCC[C@@H]1C(=O)N[C@@H](CC(=O)O)CC(=O)N[C@H]1CCCC[C@@H]1C(N)=O)NC(=O)[C@H]1CCCC[C@@H]1N [H14 TD]	3.50
CC(C)C[C@@H](CC(=O)N[C@H]1CCCC[C@@H]1C(N)=O)NC(=O)[C@H]1CCCC[C@@H]1NC(=O)[C@H]1CCCC[C@@H]1NC(=O)C[C@H](CO)NC(=O)[C@H]1CCCC[C@@H]1N [H14 SL]	4.19
NC(=O)C[C@@H](CC(=O)N[C@H]1CCCC[C@@H]1C(N)=O)NC(=O)[C@H]1CCCC[C@@H]1NC(=O)[C@H]1CCCC[C@@H]1NC(=O)C[C@H](Cc1ccc(O)cc1)NC(=O)[C@H]1CCCC[C@@H]1N [H14 YN]	3.95

Exercise: Which value of pKd has been reported for CC[C@H](C)[C@@H](CC(=O)N[C@H]1CCCC[C@@H]1C(=O)N[C@H]1CCCC[C@@H]1C(=O)N[C@@H](CCC(N)=O)CC(=O)N[C@H]1CCCC[C@@H]1C(N)=O)NC(=O)[C@H]1CCCC[C@@H]1N [H14 IQ] in the records?
Key: 3.49

Exercise: Value lookup for pKd; key = C[C@@H](O)[C@@H](CC(=O)N[C@H]1CCCC[C@@H]1C(N)=O)NC(=O)[C@H]1CCCC[C@@H]1NC(=O)[C@H]1CCCC[C@@H]1NC(=O)C[C@H](CC(N)=O)NC(=O)[C@H]1CCCC[C@@H]1N [H14 NT]
Key: 3.73

Exercise: Suppose we examine the compound CC(C)[C@@H](CC(=O)N[C@H]1CCCC[C@@H]1C(N)=O)NC(=O)[C@H]1CCCC[C@@H]1NC(=O)[C@H]1CCCC[C@@H]1NC(=O)C[C@H](Cc1ccccc1)NC(=O)[C@H]1CCCC[C@@H]1N [H14 FV] ; what pKd value has been reported?
Key: 5.92

Exercise: Return reported pKd; argument: N=C(N)NCCC[C@@H](CC(=O)N[C@H]1CCCC[C@@H]1C(N)=O)NC(=O)[C@H]1CCCC[C@@H]1NC(=O)[C@H]1CCCC[C@@H]1NC(=O)C[C@H](Cc1ccccc1)NC(=O)[C@H]1CCCC[C@@H]1N [H14 FR]
Key: 5.52

Exercise: So what does the record say about pKd for N=C(N)NCCC[C@@H](CC(=O)N[C@H]1CCCC[C@@H]1C(=O)N[C@H]1CCCC[C@@H]1C(=O)N[C@@H](CO)CC(=O)N[C@H]1CCCC[C@@H]1C(N)=O)NC(=O)[C@H]1CCCC[C@@H]1N [H14 RS] ?
Key: 3.81

Exercise: Requested field: pKd. Item: NC(=O)[C@H]1CCCC[C@@H]1NC(=O)C[C@H](Cc1ccccc1)NC(=O)[C@H]1CCCC[C@@H]1NC(=O)[C@H]1CCCC[C@@H]1NC(=O)C[C@H](Cc1ccc(O)cc1)NC(=O)[C@H]1CCCC[C@@H]1N [H14 YF]
Key: 5.70

Exercise: Give its pKd value. Item: CC(C)[C@@H](CC(=O)N[C@H]1CCCC[C@@H]1C(N)=O)NC(=O)[C@H]1CCCC[C@@H]1NC(=O)[C@H]1CCCC[C@@H]1NC(=O)C[C@@H](NC(=O)[C@H]1CCCC[C@@H]1N)[C@@H](C)O [H14 TV]
Key: 3.95
